In this section, each of the compounds is paired with its reported z-score.
test: resazurin metabolic signal in HepG2 cells – cell-based, resazurin fluorescence, 24 h, PK04 Diversity Set, profiling panel (AID 1172); details: HepG2 viability, higher = more signal; also: test concentration not given here

[Q] Can you share its z-score? I mean this compound: O=C(NCCN1CCOCC1)[C@@H]1c2ccccc2C(=O)N(Cc2ccccc2Cl)[C@H]1c1ccc(CO)cc1
[A] -0.0211

[Q] I have this compound here, CCCC1(C(=O)OC)C=C2C(=C(C)C(=O)C2C)CN1 (centres undefined) , and I need its recorded z-score.
[A] -1.11

[Q] Consider the compound shown here: COC(=O)[C@@]1(Cc2ccc(OC)cc2)[C@H]2c3cc(C(=O)N4CCCC4)n(CCc4c[nH]c5ccc(O)cc45)c3C[C@H]2CN1C(=O)c1ccccc1 What is its recorded z-score?
[A] -0.553

[Q] Return reported z-score; argument: C=CC[C@]1(C(=O)N2CCOCC2)COC(c2ccc(OCCCO)cc2)=N1
[A] 1.31

###

system: Chordin-like protein 2 (CHRDL2); assay: compounds binding chordin-like 2 – biochemical, small-molecule microarray, 635 nm fluorescence, primary screen (AID 1126); details: fluorescence 635 nm, higher = more signal;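 also: printed compound slides probed with Chrdl2 protein at 4 µg/mL for 1 h at 4 C; score merges 667 nm emission intensity with signal to noise over three replicate slides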
Value type: composite z-score

Check out these entries, answers already filled in.
Cn1cccc1C(O)C1C=CC2C(=O)N(c3ccccc3)C(=O)C2N1Nc1ccccc1 (centres undefined) :: 0.352
NCCCCCNC(=O)[C@H]1C[C@H]2C(=O)N3CCC[C@H]3C(=O)N2[C@H]1c1cccc(OCCO)c1 :: 0.18
Cc1ccc(N2C(=O)c3ccccc3[C@@H](C(=O)NCCCN(C)C)[C@@H]2c2ccc(CO)cc2)nc1 :: -0.283

--- query ---
[Q] Recorded composite z-score of CCOC(=O)C[C@H]1[C@H](OC(=O)c2cc3ccccc3oc2=O)[C@@H](NC(=O)c2ccccc2)c2cc(OCCCO)ccc2N1C(=O)c1ccccc1 , please.
[A] 0.498

###

test: optical density change of DRC41 E. coli – strain DRC41, OD650, 24 h, E. coli filamentation project, primary screen (AID 1093);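 also: MC1000 strain lacking acrAB efflux and sulA so SOS filamentation is blocked; test concentration not given here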; details: E. coli DRC41 growth, higher = more signal, called active from +8 up or from −8 down
Value type: z-score
Please state the value as a number alone, without comment.

Examples with their reported z-score follow.
C=CCNC(=O)[C@@H]1[C@H]2C(=O)O[C@H](c3ccccc3)[C@H](c3ccccc3)N2[C@H](c2ccccc2OCCO)[C@@]12C(=O)N(C(=O)OCCOC)c1ccc(C#CC3(O)CCCCCC3)cc12 :: 1.41
CCOC(=O)C[C@H]1[C@H](OC(=O)c2ccc(C(=O)c3ccccc3)cc2)[C@@H](NC(=O)c2ccc3ccccc3n2)c2cc(OCCCO)ccc2N1C(=O)Cc1ccc(OC)cc1 :: -0.57
COC(=O)[C@@]1(Cc2ccc(OC)cc2)[C@H]2c3cc(C(=O)N(C)C)n(Cc4ccc(OC(F)(F)F)cc4)c3C[C@H]2CN1C(=O)c1ccccc1 :: -1.08
O=C(Cc1ccccc1)[C@H]1C2C=CCCC(c3ccccc3)=C2CN1Cc1ccccc1 (stereo partly specified) :: 2.42
CCOC(=O)C[C@H]1[C@H](OC(=O)c2cc3ccccc3oc2=O)[C@@H](NC(=O)c2ccc3ccccc3n2)c2cc(OCCCO)ccc2N1C(=O)Cc1ccc(OC)cc1 :: 0.397

[Q] Bench note: what z-score did COC(=O)[C@@]1(Cc2ccc(OC)cc2)[C@H]2c3cc(C(=O)N4CCCC4)n(CCc4c[nH]c5ccc(OC)cc45)c3C[C@H]2CN1C(=O)c1ccccc1 show?
[A] -0.669

###

experiment: basal CRE-LacZ reporter activity in PC12 – cell-based, unstimulated, primary screen (AID 1145); conditions: no forskolin, luminescence, 4.5 h, higher = more signal, called active from +8 up or from −8 down
Below, each entry is listed with its recorded z-score.
Number, no unit, nothing else.

[Q] Could you tell me which z-score is on file for O=C1C2C=CC(C(O)c3ccco3)N(Nc3ccccc3F)C2C(=O)N1c1ccccc1 (configuration not stated) ?
[A] -0.136

[Q] For the compound CC(C)[Si]1(C(C)C)OCc2cc(C3CC3)nc(-c3ccc(Oc4ccccc4)cc3)c21 , what z-score is on record?
[A] -0.113

[Q] What does the data say about its z-score? Entry: CCCCC(CC)C(O)C1C=CC2C(=O)N(c3ccccc3)C(=O)C2N1Nc1ccccc1F (configuration not stated)
[A] -0.433

[Q] So what does the record say about z-score for Oc1ccc2cc[n+](Cc3cc4c(cc3Br)OCO4)cc2c1 ?
[A] -0.788

[Q] Look up z-score: CCOC(=O)C[C@H]1[C@H](OC(=O)Cc2ccc3c(c2)OCO3)[C@@H](NC(=O)c2ccc3ccccc3n2)c2cc(OCCCO)ccc2N1C(=O)c1ccccc1
[A] 7.23

[Q] Record request: z-score value, item COC(=O)[C@@]1(Cc2ccc(F)cc2)[C@H]2c3cc(C(=O)N(C)C)n(Cc4ccc(OC(F)(F)F)cc4)c3C[C@H]2CN1C(=O)c1ccccc1
[A] 0.397

###

target: Epidermal growth factor receptor (Homo sapiens) (UniProt P00533); assay: compounds binding epidermal growth factor receptor – biochemical, small-molecule microarray, 635 nm fluorescence, primary screen (AID 1104); details: EGFR binding, higher = more signal;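 also: score merges 667 nm emission intensity with spot signal to noise over triplicate slides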
Sequence (P00533 whole entry, looked up): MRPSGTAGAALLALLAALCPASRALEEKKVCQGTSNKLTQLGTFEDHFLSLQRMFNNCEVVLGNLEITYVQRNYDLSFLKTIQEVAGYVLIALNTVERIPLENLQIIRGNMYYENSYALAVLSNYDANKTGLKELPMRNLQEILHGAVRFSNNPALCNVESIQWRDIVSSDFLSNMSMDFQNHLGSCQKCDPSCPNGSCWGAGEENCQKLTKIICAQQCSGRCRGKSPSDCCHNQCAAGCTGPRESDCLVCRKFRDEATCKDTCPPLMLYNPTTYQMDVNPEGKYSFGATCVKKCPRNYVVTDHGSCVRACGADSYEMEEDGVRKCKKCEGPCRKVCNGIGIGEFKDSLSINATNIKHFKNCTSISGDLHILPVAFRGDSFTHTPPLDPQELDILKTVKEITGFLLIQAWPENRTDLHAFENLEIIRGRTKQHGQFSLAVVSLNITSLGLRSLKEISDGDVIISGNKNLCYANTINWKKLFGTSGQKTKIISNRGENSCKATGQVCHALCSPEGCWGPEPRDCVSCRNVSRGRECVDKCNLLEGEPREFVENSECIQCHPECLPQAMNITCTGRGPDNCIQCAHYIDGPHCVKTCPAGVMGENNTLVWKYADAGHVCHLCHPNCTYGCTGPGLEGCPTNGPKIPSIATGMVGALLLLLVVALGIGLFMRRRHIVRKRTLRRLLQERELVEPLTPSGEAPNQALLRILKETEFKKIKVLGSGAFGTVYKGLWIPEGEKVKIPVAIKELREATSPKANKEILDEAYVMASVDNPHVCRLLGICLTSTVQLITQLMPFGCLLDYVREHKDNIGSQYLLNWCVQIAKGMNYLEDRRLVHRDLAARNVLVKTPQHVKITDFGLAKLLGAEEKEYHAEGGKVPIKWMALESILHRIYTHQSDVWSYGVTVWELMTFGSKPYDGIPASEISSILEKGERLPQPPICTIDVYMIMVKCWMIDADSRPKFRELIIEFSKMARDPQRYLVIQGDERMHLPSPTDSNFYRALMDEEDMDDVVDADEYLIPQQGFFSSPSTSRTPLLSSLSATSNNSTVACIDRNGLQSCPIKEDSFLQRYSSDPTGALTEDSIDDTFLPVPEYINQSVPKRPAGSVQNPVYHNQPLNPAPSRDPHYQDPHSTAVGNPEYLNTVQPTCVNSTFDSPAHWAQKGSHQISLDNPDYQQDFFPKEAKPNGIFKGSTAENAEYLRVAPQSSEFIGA
Grouping by measured composite z-score is done with the following cut points: one (below -0.1), two (-0.1 to below 0.5), three (0.5 or more)

[N-]=[N+]=Nc1ccccc1C[C@@]1(C(=O)NCCN2CCOCC2)N=C(c2ccc(OCCCO)cc2)O[C@@H]1c1ccccc1N=[N+]=[N-] :: one
CC(C)N1CC=CC23O[C@@H]4C=CCCOC(=O)C4[C@H]2C(=O)N(CCCO)[C@@H]3C1=O (stereo not given in full) :: one
CN(C)C(=O)[C@]1(CCC(=O)OC(C)(C)C)N=C(c2ccc(OCCCO)cc2)O[C@@H]1c1ccccc1CN=[N+]=[N-] :: two
O=C1[C@H]2C=C(I)[C@H](C[C@@H]2OCCOCCO)[C@@]12CO2 :: three
C=CC[C@@]1(C(=O)NCCCOC)N=C(c2ccc(OCCCO)cc2)O[C@@H]1c1ccccc1 :: one
[N-]=[N+]=Nc1ccccc1[C@@H]1OC(c2ccc(OCCCO)cc2)=N[C@]1(Cc1ccccc1)C(=O)N1CCCCC1 :: two
COc1ccc([Si](C)(C)[C@@H]2[C@@H](CC(=O)N(CCO)Cc3ccccc3)O[C@]3(C(=O)N(Cc4cccc(N5CCCCC5=O)c4)c4ccccc43)[C@H]2C)cc1 :: two
Cc1ccc(S[C@]2(C(=O)NCc3ccccc3)CC(=O)N(C3CCCCC3)[C@@H]2c2ccc(CO)cc2I)cc1 :: one

Next, consider the following compound.
[Q] Could you tell me which band O=C1N(CCS(=O)(=O)c2ccccc2)c2ccccc2[C@H]2OC(c3ccc(OCCCO)cc3)=N[C@@]12Cc1ccccc1 belongs to?
[A] three

###

experiment: growth modulation of vineyard yeast isolate – strain RM11-1a, OD600, basal, 24 h, primary screen (AID 1177);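 also: cultures grown under basal conditions with no added stressor; test concentration not given here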; conditions: S. cerevisiae RM11-1a growth, OD600, 24 h, called active from +8 up or from −8 down
Active and inactive are the calls of the source.
Lab note: assign the record to one of class 1 = active, class 0 = inactive

CCOC(=O)C[C@H]1[C@H](OC(=O)c2ccccc2-c2ccccc2)[C@@H](NC(=O)c2ccc3ccccc3n2)c2cc(OCCCO)ccc2N1C(=O)Cc1ccc(OC)cc1 :: class 0
O=C1OCCC/C=C\[C@H]2OC34C=CCN(c5ccc6ccccc6c5)C(=O)[C@H]3N(CCO)C(=O)[C@@H]4C12 (stereo not given in full) :: class 0
C=CC[C@@H](OC(=O)Nc1ccc(OC)cc1)c1ccc(O)c(F)c1 :: class 1

[Q] Which outcome was assigned to NC(=O)NCC#Cc1ccc2c(c1)[C@]1(C(=O)N2)[C@H](c2ccccc2OCCO)N2[C@H](c3ccccc3)[C@H](c3ccccc3)OC(=O)[C@H]2[C@@H]1C(=O)NC[C@H](O)c1ccccc1 in this test?
[A] class 0

[Q] What did the test return for CN(C)C(=O)[C@@]1(Cc2ccccc2CN=[N+]=[N-])N=C(c2ccc(OCCCO)cc2)O[C@H]1c1ccccc1N=[N+]=[N-] ?
[A] class 0

[Q] Which result was noted for this molecule in the test: C=CCNC(=O)[C@@H]1[C@H]2C(=O)O[C@H](c3ccccc3)[C@H](c3ccccc3)N2[C@H](c2ccccc2OCCO)[C@@]12C(=O)Nc1ccc(C#CCCO)cc12
[A] class 0

[Q] Write down the call the test reported for this molecule. Item: O=C(Cc1ccccc1)[C@H]1C2C=CCCC(c3ccccc3)=C2CN1Cc1ccccc1 (stereo not given in full)
[A] class 0

[Q] Would you mind telling me which call this test gave COCCOC(=O)N1C(=O)[C@@]2(c3cc(C#CC4=CCCCC4)ccc31)[C@H](C(=O)Nc1nc3ccccc3s1)[C@H]1C(=O)O[C@H](c3ccccc3)[C@H](c3ccccc3)N1[C@@H]2c1ccc(O)cc1 ?
[A] class 0

[Q] What did this assay record as the result for COCC(=C=CC[C@H](O)c1ccccc1OCCO)C[C@H](O)c1ccccn1 ?
[A] class 0

[Q] Give the logged outcome of this assay for the following molecule: COC(=O)[C@@]1(Cc2ccccc2)[C@H]2c3cc(C(=O)N4CCCC4)n(CCc4ccccn4)c3C[C@H]2CN1C(=O)c1ccccc1
[A] class 0

[Q] What was the test verdict on CC(C)[Si]1(C(C)C)OCc2cc(-c3ccc(-c4ccc(Cl)c(Cl)c4)o3)nc(-c3ccccc3)c21 ?
[A] class 0

[Q] Could you please tell me the result logged for CCCCCCCCCC(O)C1C=CC2C(=O)N(c3ccccc3)C(=O)C2N1Nc1cc(OC)c(OC)c(OC)c1 (stereo not given) in this assay?
[A] class 0

[Q] Look up the recorded call for O=C1C2C=CC(C(O)c3cccc(O)c3)N(Nc3ccc([N+](=O)[O-])cc3)C2C(=O)N1c1ccccc1 (stereo not given) in this test.
[A] class 0

[Q] Hello, I am checking results. What call was entered for COc1cc(NN2C(C(O)c3ccco3)C=CC3C(=O)N(C)C(=O)C32)cc(OC)c1OC (stereo not given) ?
[A] class 0

[Q] Answer briefly: the call reported for CC(=O)N1CC2(CC2)CC1c1ccccc1 (stereo not given) in this assay.
[A] class 0
